Examples of compounds with documented growth inhibition follow.
test: NCI Yeast Anticancer Drug Screen. Data for the rad50 strain (AID 155);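 also: 0% = growth of vehicle-only cultures of the same strain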; settings: S. cerevisiae rad50 strain growth inhibition; at 5.0 µM (retest, dose inferred, filed as 0.5); stronger effect = higher value
Compounds without any hit were thinned out: in the full panel of roughly 79,000, 15% have a hit.
A number alone suffices; assume %.

What does the data say about its growth inhibition? Entry: COc1ccc(C(=O)O)c(-c2c(C(=O)O)ccc(OC)c2OC(C)=O)c1
3

Now consider CCOC(=O)C1=C(C)NC2=C(C(=O)N(c3ccccc3)C2c2ccccc2)C1c1ccccc1 (configuration not stated) .
5

Now consider COC1/C=C\OC2(C)Oc3c(C)c(O)c4c(c3C2=O)C2=NC(C)(C)N(c3ccccc3)C2=C(NC(=O)/C(C)=C\C=C\C(C)C(O)C(C)C(O)C(C)C(OC(C)=O)C1C)C4=O (configuration not stated) .
-2

Now consider N#CC1=C(N)OC(c2ccccc2)=C(C#N)C1c1ccccc1 (configuration not stated) .
90

Now consider CCOC(=O)C(CC)(CCc1ccccc1[N+](=O)[O-])C(=O)OCC .
8

Now consider S=C(Nc1ccccc1)N(Cc1ccccc1)c1ccccc1 .
-7

These entries and their values trace back to PubChem BioAssay (NCI).
